System: rodent lifetime carcinogenesis bioassay, tumor incidence TD50
ASSAY_EXPLANATION: carcinogenic potency in animals, long-term in vivo studies, CPDB compilation (AID 1745844)
CONDITIONS_USED: rat; strain Sprague-Dawley; females; inhaled; site: brain; lesion: neuroblastoma; dosed 52 weeks; study length 131 weeks
OBSERVABLE: TD50

{"SMILES_STR": "C=CCl", "RECORDED_RESULT": "4850 mg/kg/day"}

====

System: rodent lifetime carcinogenesis bioassay, tumor incidence TD50
ASSAY_EXPLANATION: carcinogenic potency in animals, long-term in vivo studies, CPDB compilation (AID 1745844)
CONDITIONS_USED: rat; strain Osborne-Mendel; males; in feed; site: liver; lesion: neoplastic nodule; dosed 80 weeks; study length 108 weeks

{"COMPOUND": "C=C1C(CCl)(CCl)C2(Cl)C(Cl)C(Cl)C1(Cl)C2(Cl)Cl (stereo unspecified)", "TD50 (mg/kg/day)": 92.1}

All figures here come from PubChem BioAssay AID1745844.
